- MEASURED TARGET: C3 purified from fresh human plasma (human, UniProt P01024 23-1663)
- Sequence (P01024 23-1663): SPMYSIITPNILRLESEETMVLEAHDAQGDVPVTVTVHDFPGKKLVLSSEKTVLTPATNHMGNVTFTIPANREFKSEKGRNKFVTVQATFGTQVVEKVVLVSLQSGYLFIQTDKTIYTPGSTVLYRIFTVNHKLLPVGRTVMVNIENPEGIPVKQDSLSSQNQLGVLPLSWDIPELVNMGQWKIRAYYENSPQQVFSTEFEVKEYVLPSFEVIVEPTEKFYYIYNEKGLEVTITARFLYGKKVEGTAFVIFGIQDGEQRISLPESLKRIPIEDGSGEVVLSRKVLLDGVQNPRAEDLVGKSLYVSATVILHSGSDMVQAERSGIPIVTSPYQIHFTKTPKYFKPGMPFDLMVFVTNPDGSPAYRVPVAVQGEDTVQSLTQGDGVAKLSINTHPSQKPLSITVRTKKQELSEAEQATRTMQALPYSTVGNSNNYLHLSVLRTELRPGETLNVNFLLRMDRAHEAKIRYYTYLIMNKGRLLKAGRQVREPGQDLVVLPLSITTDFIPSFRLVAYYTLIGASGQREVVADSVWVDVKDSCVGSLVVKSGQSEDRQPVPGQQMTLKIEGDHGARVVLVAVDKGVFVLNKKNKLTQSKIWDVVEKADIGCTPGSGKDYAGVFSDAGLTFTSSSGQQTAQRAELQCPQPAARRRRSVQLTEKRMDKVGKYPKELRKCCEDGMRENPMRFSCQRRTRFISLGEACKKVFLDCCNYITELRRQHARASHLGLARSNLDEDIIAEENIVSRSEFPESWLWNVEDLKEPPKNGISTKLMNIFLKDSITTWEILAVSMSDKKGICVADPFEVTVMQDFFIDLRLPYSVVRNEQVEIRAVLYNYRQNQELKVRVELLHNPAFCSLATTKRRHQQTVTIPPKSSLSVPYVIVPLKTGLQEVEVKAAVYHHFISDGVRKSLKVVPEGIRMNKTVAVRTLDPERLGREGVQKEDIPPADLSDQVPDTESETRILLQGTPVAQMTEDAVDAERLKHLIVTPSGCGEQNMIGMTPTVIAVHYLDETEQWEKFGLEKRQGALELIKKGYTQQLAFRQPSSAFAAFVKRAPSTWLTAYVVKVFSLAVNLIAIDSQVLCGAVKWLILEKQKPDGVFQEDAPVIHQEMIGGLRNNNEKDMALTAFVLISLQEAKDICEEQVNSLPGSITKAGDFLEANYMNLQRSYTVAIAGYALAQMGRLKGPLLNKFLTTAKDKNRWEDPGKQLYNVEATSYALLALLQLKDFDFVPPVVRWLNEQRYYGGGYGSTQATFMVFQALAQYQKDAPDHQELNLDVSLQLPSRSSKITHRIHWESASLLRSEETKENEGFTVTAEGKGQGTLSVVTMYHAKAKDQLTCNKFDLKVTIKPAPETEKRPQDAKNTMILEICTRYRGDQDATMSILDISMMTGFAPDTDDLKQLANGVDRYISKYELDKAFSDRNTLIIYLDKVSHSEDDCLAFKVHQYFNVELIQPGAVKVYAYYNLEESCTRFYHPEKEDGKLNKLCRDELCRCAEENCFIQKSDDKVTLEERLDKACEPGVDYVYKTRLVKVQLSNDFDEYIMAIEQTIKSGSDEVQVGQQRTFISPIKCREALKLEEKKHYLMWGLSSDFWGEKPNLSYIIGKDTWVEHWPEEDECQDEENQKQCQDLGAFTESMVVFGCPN
- METHOD SUMMARY: cell-based or functional assay
Bridge positions count the residues as written; N and C are the ends. Square brackets hold non-standard residues; d marks the D form. NMeD = CN[C@@H](CC(=O)O)C(=O)O
ASSAY METRIC: IC50 (CP), inhibition of classical pathway complement activation, ELISA (µM)
Express it in µM; write the number only.

[Q] Any idea what its IC50 (CP), inhibition of classical pathway complement activation, ELISA is? The binder is Ac-ICVYQ[NMeD]WGAHRCT-NH2 (disulfide 2-12; SMILES CC[C@H](C)[C@H](NC(C)=O)C(=O)N[C@H]1CSSC[C@@H](C(=O)N[C@H](C(N)=O)[C@@H](C)O)NC(=O)[C@H](CCCNC(=N)N)NC(=O)[C@H](Cc2c[nH]cn2)NC(=O)[C@H](C)NC(=O)CNC(=O)[C@H](Cc2c[nH]c3ccccc23)NC(=O)[C@H](CC(=O)O)N(C)C(=O)[C@H](CCC(N)=O)NC(=O)[C@H](Cc2ccc(O)cc2)NC(=O)[C@H](C(C)C)NC1=O) [Ac-I[CVYQ(NMe)DWGAHRC]T-NH2]
[A] 44

All figures here come from patent US20120178694A1.
